Molecular target: T1, HLA-A*03:01 (human)
T1 construct: MHC class I monomer first loaded with a UV-sensitive peptide that is cleaved by UV irradiation and exchanged for the test peptide; captured on streptavidin plates; also called peptide-receptive MHC molecules
Assay: UV-ligand exchange, anti-b2m ELISA; peptide exchange yield grade (>10% +, >20% ++, >50% +++, >75% ++++)
measured.metric: peptide exchange yield

Use the examples below as a reference point.
>>> assay_result("VVDDSQLPK")
"20 to 50%"
>>> assay_result("SSLPRAFQK")
"20 to 50%"
>>> assay_result("TVYDSIWCNMK")
"> 75%"

Now take the following binder into account.
Request: Entry under review: VIGTTSSPK . Reported peptide exchange yield?
Response: 50 to 75%
